# Tested on: porcine liver esterase (PLE)
# assay.info: Hydrolysis of prodrug in porcine liver esterase (PLE)
# Assay type: in vitro ADME
# assay.setup: pig, porcine liver esterase (PLE) solution, PLE 0.5 unit/mL, 10% DMSO, 37 °C; read-out: T1/2 (time required for 50% degradation of prodrug) (converted)
observation.type: half-life at 0.25 mg/mL (LCZ 2HCl Eq.) (min)

{"compound": "CCCCCCCCCCCCOC(=O)COCCN1CCN([C@@H](c2ccccc2)c2ccc(Cl)cc2)CC1 [LCZ-L, Levocetirizine laurate]", "result.number": 240}
{"compound": "CCCCCCCCCCOC(=O)COCCN1CCN([C@@H](c2ccccc2)c2ccc(Cl)cc2)CC1 [LCZ-D, Levocetirizine decanoate]", "result.number": 180}

----------
# Tested on: porcine liver esterase (PLE)
# assay.info: Hydrolysis of prodrug in porcine liver esterase (PLE)
# Assay type: in vitro ADME
# assay.setup: pig, porcine liver esterase (PLE) solution, PLE 0.2 unit/mL, 10% DMSO, 37 °C; read-out: T1/2 (time required for 50% degradation of prodrug) (converted)
observation.type: half-life at 0.25 mg/mL (LCZ 2HCl Eq.) (min)

{"molecule": "CCCCCCCCCCCCOC(=O)COCCN1CCN([C@@H](c2ccccc2)c2ccc(Cl)cc2)CC1 [LCZ-L, Levocetirizine laurate]", "study.target": "porcine liver esterase (PLE)", "readout.units": "min", "result.number": 300}
{"molecule": "CCCCCCCCCCOC(=O)COCCN1CCN([C@@H](c2ccccc2)c2ccc(Cl)cc2)CC1 [LCZ-D, Levocetirizine decanoate]", "study.target": "porcine liver esterase (PLE)", "readout.units": "min", "result.number": 240}
